Entry source: ChEMBL document CHEMBL5344406

System: Staphylococcus aureus
Experiment: Antibacterial activity against Staphylococcus aureus assessed as bacterial growth inhibition by broth microdilution method
Format: functional
PARAMETER: MIC (µg/mL)
Write it as a number; the unit µg/mL goes unstated.

// recorded MIC for CC(=O)Nc1ccc(S(=O)(=O)n2cc(CN3CCS(=O)(=O)CC3)nn2)cc1 : 1.56

// recorded MIC for COC(=O)[C@H](Cc1cn(Cc2cn(-c3ccccc3[N+](=O)[O-])nn2)c2ccccc12)NC(=O)[C@@H](C)c1ccc2cc(OC)ccc2c1 : 25

// recorded MIC for CC1(C)S[C@@H]2[C@H](NC(=O)[C@H](N)c3ccc(O)cc3)C(=O)N2[C@H]1C(=O)O [AMOXICILLIN] : 25

// recorded MIC for CC1(C)S[C@@H]2[C@H](NC(=O)[C@H](N)c3ccccc3)C(=O)N2[C@H]1C(=O)O [AMPICILLIN] : 4
